Target: T1, B7-H3 on B7-H3-expressing CHO cells (Genescript) (UniProt Q5ZPR3 29-534, limits assumed)
T1 construct: whole, on cells; also called CHO-K1/B7-H3; MFI B7-H3
T1 sequence (looked up): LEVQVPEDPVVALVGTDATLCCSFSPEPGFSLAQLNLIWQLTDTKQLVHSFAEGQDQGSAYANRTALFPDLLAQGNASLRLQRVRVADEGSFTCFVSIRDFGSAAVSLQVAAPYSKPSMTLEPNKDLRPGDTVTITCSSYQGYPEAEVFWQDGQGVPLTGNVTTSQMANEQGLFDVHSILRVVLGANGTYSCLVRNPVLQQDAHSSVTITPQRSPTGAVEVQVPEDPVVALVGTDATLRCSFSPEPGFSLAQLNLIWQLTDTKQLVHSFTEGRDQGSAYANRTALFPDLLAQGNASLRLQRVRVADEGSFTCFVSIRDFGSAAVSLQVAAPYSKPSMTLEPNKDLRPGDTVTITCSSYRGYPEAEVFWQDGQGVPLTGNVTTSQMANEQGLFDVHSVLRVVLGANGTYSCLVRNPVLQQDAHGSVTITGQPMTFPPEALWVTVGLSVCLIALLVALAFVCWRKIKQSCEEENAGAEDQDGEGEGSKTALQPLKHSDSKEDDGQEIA
Assay: flow cytometry, B7-H3-expressing CHO cells, 10 ug/ml
Method: Binding of anti-B7-H3 antibodies to cell lines was assessed by flow cytometry. Briefly, approximately 1.5 e5 B7-H3-expressing CHO cells (Genescript) or parent CHO cells (ATCC) were resuspended in FACS buffer (PBS/1% BSA/0.01% NaN3) containing 10 μg/ml of anti-B7-H3 antibodies and incubated for 60 min on ice. […] Cells were then washed twice, resuspended in FACS buffer, and read on an Attune Flow Cytometer (Life Technologies). Data are expressed as Mean Fluorescent Intensities (MFI).
Measured MFI @ 10 ug/ml accompanies every entry in the list below.
Number only, in MFI; omit the unit.

The following binders have reported results that may help.
{"BINDER": "40633p1.1.B12 (scFv, V domains shown, Tested as scFv-Fc (Expi293 supernatant)) VH: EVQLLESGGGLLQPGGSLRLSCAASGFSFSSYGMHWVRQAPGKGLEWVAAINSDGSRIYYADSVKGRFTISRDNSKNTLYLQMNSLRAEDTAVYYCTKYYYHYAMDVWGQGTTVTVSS VL: QSVLTQPPSASGTPGQRVTISCSGSRSDIGATTVNWYQQLPGTAPKLLTYQSHLRPSGVPDRFSGSKSGTSASLAISGLQSEDEADYYCASWDASLNTWVFGGGTKLTVL", "MFI @ 10 ug/ml, MFI": 65400}
{"BINDER": "40579p1.G1 (scFv, V domains shown, Tested as scFv-Fc (Expi293 supernatant)) VH: EVQLLESGGGLVQPGGSLRLSCAASGFNFSSYWMSWVRQAPGKGLEWVSGISISYGGNAYYADSVKGRFTVSRDNSKNTLYLQMNSLRAEDTAVYYCGRDRSPYQYRSMDVWGQGTTVTVSS VL: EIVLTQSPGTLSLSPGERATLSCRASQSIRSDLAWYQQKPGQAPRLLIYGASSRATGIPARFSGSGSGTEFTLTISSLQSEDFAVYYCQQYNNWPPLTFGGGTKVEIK", "MFI @ 10 ug/ml, MFI": 87100}

Turning to the following binder.
[in] Return MFI @ 10 ug/ml for the following binder: 40633p1.1.F2 (scFv, V domains shown, Tested as scFv-Fc (Expi293 supernatant)) VH: EVQLLESGGGLVQPGGSLRLSCVASGLTFNGFAMTWVRQAPGKGLEWVSGISWNSGSIYYADSVKGRFTISRDNSKNTVYLQMSSLRAEDTAIYYCAKNWNDYYNSMDVWGQGTTVTVSS VL: QSVLTQPPSASGTPGQRVTISCSGSRSNIGTKYVYWYQQFPGTAPKLLIYTTDRRPSGVPDRFSGSKSGTSASLAISGLQSEDEADYYCSAWDDRLNAWVFGGGTKLTVL
[out] 66800
